Taken from patent US20120165330A1.

Molecular target: UniProtKB Q8IXJ6
Sequence (Q8IXJ6 whole entry): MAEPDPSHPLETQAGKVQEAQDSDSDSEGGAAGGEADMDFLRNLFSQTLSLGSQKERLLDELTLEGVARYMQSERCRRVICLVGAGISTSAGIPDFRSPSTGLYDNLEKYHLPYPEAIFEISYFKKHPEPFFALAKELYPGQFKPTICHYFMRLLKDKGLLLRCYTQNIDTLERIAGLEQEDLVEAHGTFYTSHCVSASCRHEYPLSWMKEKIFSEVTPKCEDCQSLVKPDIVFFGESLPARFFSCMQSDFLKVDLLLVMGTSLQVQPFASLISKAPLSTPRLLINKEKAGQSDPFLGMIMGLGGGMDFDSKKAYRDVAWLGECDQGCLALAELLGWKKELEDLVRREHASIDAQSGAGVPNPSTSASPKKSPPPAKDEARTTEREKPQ
Assay: mass spectrometry based assay to identify modulators of SIRT2 inhibition
Type: biochemical
Conditions: 2.68 μM peptide substrate, 135 μM βNAD+, 50 nM SIRT2, 30 min at room temperature; read-out: SIRT2 IC50 UM
pIC50: −log10 of the molar value.
property name: pIC50

Solved cases below.
Could you share what pIC50 was measured for `Cc1nc2cccc(NC(=O)c3cscn3)c2c(=O)n1-c1cccc(OC(F)(F)F)c1` , tested on UniProtKB Q8IXJ6?
> 5.00

Could you share what pIC50 was measured for `Cc1nc2cccc(NC(=O)c3cscn3)c2c(=O)n1-c1cccc(C(F)(F)F)c1` , tested on UniProtKB Q8IXJ6?
> 5.00

Could you share what pIC50 was measured for `Cc1nc2cccc(NC(=O)Cc3cccnc3)c2c(=O)n1-c1cccc(OC(F)(F)F)c1` , tested on UniProtKB Q8IXJ6?
4.30 to 5.00

New cases:
Could you share what pIC50 was measured for `Cc1nc2cccc(NC(=O)c3cnccn3)c2c(=O)n1-c1cccc(OC(F)(F)F)c1` , tested on UniProtKB Q8IXJ6?
4.30 to 5.00

###

Molecular target: UniProtKB Q96EB6
Sequence (Q96EB6 1-747): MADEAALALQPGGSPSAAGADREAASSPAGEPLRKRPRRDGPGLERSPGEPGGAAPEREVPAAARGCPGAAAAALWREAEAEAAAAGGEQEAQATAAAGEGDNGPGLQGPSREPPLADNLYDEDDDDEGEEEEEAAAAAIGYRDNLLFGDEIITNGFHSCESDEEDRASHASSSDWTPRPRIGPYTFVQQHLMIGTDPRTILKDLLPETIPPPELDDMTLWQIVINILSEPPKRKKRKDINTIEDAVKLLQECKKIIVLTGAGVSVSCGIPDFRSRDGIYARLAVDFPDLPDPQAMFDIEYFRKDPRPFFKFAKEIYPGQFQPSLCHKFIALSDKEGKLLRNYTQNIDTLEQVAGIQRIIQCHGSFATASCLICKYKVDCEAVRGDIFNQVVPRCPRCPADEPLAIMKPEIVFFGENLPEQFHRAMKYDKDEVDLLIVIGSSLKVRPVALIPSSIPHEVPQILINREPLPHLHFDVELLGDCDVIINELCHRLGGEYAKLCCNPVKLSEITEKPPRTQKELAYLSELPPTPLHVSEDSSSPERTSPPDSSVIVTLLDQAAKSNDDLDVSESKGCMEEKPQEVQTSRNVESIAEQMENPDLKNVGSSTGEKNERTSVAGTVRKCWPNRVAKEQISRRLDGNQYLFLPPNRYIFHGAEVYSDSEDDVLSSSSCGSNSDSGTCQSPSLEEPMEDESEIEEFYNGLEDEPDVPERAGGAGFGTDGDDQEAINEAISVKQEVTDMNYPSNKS
Experiment: mass spectrometry based assay to identify modulators of SIRT1 activity
Format: biochemical
Settings: 25 min; percent maximum fold activation of SIRT1; read-out: SIRT1 % FOLD ACT.
# Emax per entry

Solved cases below.
Entry under review: Cc1nc2cccc(NC(=O)c3cnccn3)c2c(=O)n1-c1cccc(C(F)(F)F)c1 [Compound 2] . Reported Emax?
> 150%

Entry under review: Cc1nc2cccc(NC(=O)c3cccc(OCC(O)CO)n3)c2c(=O)n1-c1cccc(OC(F)(F)F)c1 (centres unmarked) [Compound 9] . Reported Emax?
> 150%

Entry under review: Cc1nc2cccc(NC(=O)c3cccc(CN4CCOCC4)n3)c2c(=O)n1-c1cccc(C(F)(F)F)c1 [Compound 7] . Reported Emax?
> 150%

New cases:
Entry under review: Cc1nc2cccc(NC(=O)c3cnccn3)c2c(=O)n1-c1cccc(OC(F)(F)F)c1 [Compound 4] . Reported Emax?
> 150%

Entry under review: Cc1nc2cccc(NC(=O)Cc3cccnc3)c2c(=O)n1-c1cccc(OC(F)(F)F)c1 [Compound 5] . Reported Emax?
< 150%
